The measured values listed here are drawn from patent US12071404B2.

# TARGET UNDER TEST: GPR17 (Homo sapiens)
# METHOD: Calcium mobilization functional assay (GPR17 Ca2+ assay)
# Assay type: cell-based
# Set-up: host or cells: Flp-In T-REx CHO
# COND: CHO hGPR17 cells, inhibition of 50 nM MDL29,951, Calcium 5 dye, FLIPR; read-out: Ca2+ assay pIC50 (converted)
Property: IC50; scope: individual compounds

TEST SMILES | IC50
O=S(=O)(Nc1cc(F)c(Cl)cc1F)c1c[nH]c2cc(Br)cc(F)c12 | 3.16 to 31.6 nM
O=S(=O)(Nc1ccc(Cl)cc1F)c1c[nH]c2c1ccc1ccccc12 | > 31.6 nM
COc1nc(NS(=O)(=O)c2c[nH]c3c(Br)c(Cl)ccc23)c(F)cc1CC#N | < 3.16 nM
N#Cc1cc(F)c(NS(=O)(=O)c2c[nH]c3c(Br)cccc23)cc1F | 3.16 to 31.6 nM

* * *

# TARGET UNDER TEST: GPR17 (Homo sapiens, UniProt Q13304)
# Sequence (Q13304 whole entry): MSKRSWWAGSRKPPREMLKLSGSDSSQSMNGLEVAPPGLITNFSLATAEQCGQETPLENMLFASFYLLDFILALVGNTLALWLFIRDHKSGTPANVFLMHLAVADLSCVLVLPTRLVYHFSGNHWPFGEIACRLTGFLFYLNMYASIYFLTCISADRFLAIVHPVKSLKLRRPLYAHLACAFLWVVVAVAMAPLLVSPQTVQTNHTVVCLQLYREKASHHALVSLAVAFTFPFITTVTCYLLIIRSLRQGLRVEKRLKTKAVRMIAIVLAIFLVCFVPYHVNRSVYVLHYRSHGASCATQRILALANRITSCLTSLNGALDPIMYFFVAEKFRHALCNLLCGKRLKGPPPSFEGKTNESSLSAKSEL
# METHOD: cAMP accumulation functional assay (HTRF, Schild analysis)
# Format: cell-based
# Set-up: host or cells: Flp-In T-REx CHO
# COND: CHO hGPR17 cells, Schild analysis vs MDL29,951, 5 μM forskolin, read-out: cAMP assay pA2 (converted)
ENDPOINT NAME: Kb

TEST SMILES | MEASURED RESULT
COc1cc(NS(=O)(=O)c2c[nH]c3cc(Cl)ccc23)ncc1Cl | > 31.6 nM
COc1ccc2c(S(=O)(=O)Nc3cc(F)c(C#N)cc3OC)c[nH]c2c1 | 3.16 to 31.6 nM
N#Cc1ccc(NS(=O)(=O)c2c[nH]c3c(Br)c(Cl)ccc23)c(F)c1 | < 3.16 nM
COc1cc(F)c(NS(=O)(=O)c2c[nH]c3cc(Cl)ccc23)cc1F | 3.16 to 31.6 nM
O=S(=O)(Nc1cc(F)c(Cl)cc1F)c1c[nH]c2c1ccc1cccnc12 | < 3.16 nM
N#Cc1ccc(NS(=O)(=O)c2c[nH]c3cc(Br)ccc23)cc1 | < 3.16 nM
Cc1ccc2c(S(=O)(=O)Nc3ccc(Br)cc3F)c[nH]c2c1 | 3.16 to 31.6 nM

* * *

# TARGET UNDER TEST: UniProtKB Q13304
# METHOD: Calcium mobilization functional assay (GPR17 Ca2+ assay)
# Assay type: cell-based
# Design: host or cells: Flp-In T-REx CHO
# COND: CHO hGPR17 cells, inhibition of 50 nM MDL29,951, Calcium 5 dye, FLIPR; read-out: Ca2+ assay pIC50 (converted)
ENDPOINT NAME: IC50

COMPOUND | MEASURED RESULT
COC(=O)c1ccc(NS(=O)(=O)c2c[nH]c3cc(Cl)ccc23)cc1 [Compound I-6] | > 31.6 nM
N#Cc1ccc2c(S(=O)(=O)Nc3cc4c(cc3F)OC(F)(F)O4)c[nH]c2c1 [Compound I-68] | > 31.6 nM
COc1ccc2c(S(=O)(=O)Nc3cc(F)c(F)cc3F)c[nH]c2c1 [Compound I-2] | > 31.6 nM
COc1cc(C(F)(F)F)cnc1NS(=O)(=O)c1c[nH]c2cc(Cl)ccc12 [Compound I-344] | 3.16 to 31.6 nM
N#Cc1ccc(NS(=O)(=O)c2c[nH]c3ccccc23)c(F)c1 [Compound I-105] | > 31.6 nM
O=S(=O)(Nc1cccc2nsnc12)c1c[nH]c2c(Br)cccc12 [Compound I-111] | > 31.6 nM
N#Cc1ccc(NS(=O)(=O)c2c[nH]c3cc(Cl)ccc23)nc1 [Compound I-61] | > 31.6 nM
O=S(=O)(Nc1cc(F)c(Cl)cc1F)c1csc2cc(Cl)ccc12 [Compound I-312] | 3.16 to 31.6 nM
O=S(=O)(Nc1nc(F)c(OCCF)cc1F)c1c[nH]c2cc(Cl)ccc12 [Compound I-364] | < 3.16 nM
CS(=O)(=O)c1ccc2c(S(=O)(=O)Nc3cc4c(cc3F)OC(F)(F)O4)c[nH]c2c1 [Compound I-238] | 3.16 to 31.6 nM
O=S(=O)(Nc1c(F)ccc2nsnc12)c1c[nH]c2cc(Cl)ccc12 [Compound I-131] | > 31.6 nM
CS(=O)(=O)c1ccc2c(S(=O)(=O)Nc3ccc(I)cc3F)c[nH]c2c1 [Compound I-48] | 3.16 to 31.6 nM
N#Cc1ccc(NS(=O)(=O)c2c[nH]c3cc(Cl)ccc23)cc1 [Compound I-12] | < 3.16 nM
O=S(=O)(Nc1cc(OC(F)F)c(Cl)cc1F)c1c[nH]c2cc(Cl)ccc12 [Compound I-195] | 3.16 to 31.6 nM
